target: sigma receptor (Cavia porcellus, UniProt Q60492)
Sequence (Q60492 whole entry): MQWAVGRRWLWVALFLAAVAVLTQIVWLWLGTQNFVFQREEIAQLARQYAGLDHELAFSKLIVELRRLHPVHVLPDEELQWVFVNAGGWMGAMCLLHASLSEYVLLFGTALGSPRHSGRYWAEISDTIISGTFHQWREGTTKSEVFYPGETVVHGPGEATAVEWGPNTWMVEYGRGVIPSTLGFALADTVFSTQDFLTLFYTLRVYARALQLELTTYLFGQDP
Assign IC50 to each entry below.
Provide the reading as a plain figure in nM.

Exam item: What measured IC50 goes with CCCN1CCC[C@@H](c2cccc(O)c2)C1 [(-)3-PPP, reference compound] ?
Marked response: 235

Exam item: For the molecule CCCN1CCCC(c2cccc(O)c2)C1 (single isomer, unassigned; (+)) [(+)3-PPP, reference compound] , what IC50 is on record?
Marked response: 33

---

biological target: [3H]MK-801; experiment: [3H]MK-801 displacement binding; settings: read-out: IC50 vs [3H]MK-801; Table II; ± s.e.m. (n)
Field: pIC50. Provide a value for each of the molecules that follow.
Please report pIC50 as the negative decimal logarithm of the molar concentration, giving only the number.

Exam item: Param item = N=C(Nc1cccc2c1CCC2)Nc1cccc2c1CCC2 [N,N'-Di-(4-indanyl)-guanidine] ; retrieve measured pIC50.
Marked response: 6.30

Exam item: Would you kindly share the measured pIC50 for `N=C(Nc1ccc(F)cc1C(F)(F)F)NC12CC3CC(CC(C3)C1)C2` ?
Marked response: 4.50

Exam item: Form field: reported pIC50 of `Cc1cc(Br)ccc1NC(=N)NC1CCCCC1`
Marked response: 4.62

Exam item: Suppose we examine the molecule `N=C(Nc1cccc2ccc(=O)oc12)NC12CC3CC(CC(C3)C1)C2` ; what pIC50 value has been reported?
Marked response: 5.17

Exam item: I am curious: what pIC50 value has been reported for `N=C(Nc1ccccc1I)Nc1cccc2ccccc12` ?
Marked response: 6.68

Exam item: pIC50 lookup needed for `N=C(Nc1ccccc1C(F)(F)F)NC12CC3CC(CC(C3)C1)C2` , thanks.
Marked response: 4.64

---

biological target: sigma receptor; assay: [3H]DTG displacement radioligand binding assay, guinea pig brain membranes; conditions: read-out: IC50 vs [3H]DTG; Table I; guinea pig brain membranes
Counter-ions that a name gives are not always drawn.
Readout label: IC50 (µM)
Kindly provide the numeric value in µM only, without the unit symbol.

Exam item: Which IC50 value belongs to Cc1ccccc1NC(=N)Nc1ccc(N)cc1C [NH2 --DTG, hydrochloride] ?
Marked response: 0.28

Exam item: Which IC50 value belongs to Cl.N=C(Nc1ccccc1I)NC12CC3CC(CC(C3)C1)C2 [AdIpG, HCl] ?
Marked response: 0.005

Exam item: Field request: IC50 | item: `Cc1ccccc1NC(=N)Nc1c(C)cccc1C`
Marked response: 0.07

Exam item: Item under review: `Cc1ccccc1NC(=N)Nc1ccc([N+](=O)[O-])cc1C` . Reported IC50?
Marked response: 0.037

Exam item: # get_value(readout='IC50', item= Cc1cc(Br)ccc1NC(=N)Nc1ccc(Br)cc1C [Example 4-Br--DTG] )
Marked response: 0.037

---

target: sigma receptor from guinea pig brain (Cavia porcellus); construct: from tissue; host or cells: guinea pig brain membranes; assay: [3H]AZ-DTG binding and photoaffinity labeling of the sigma receptor; conditions: 10 uM
Sequence (Q60492 whole entry): as above
Readout label: effect on [3H]AZ-DTG labeling of the 29 kD polypeptide

# Compound, Result value
records = [
    ("NCCc1ccc(O)c(O)c1 [dopamine, reference compound]", "unaffected"),
    ("NCCc1c[nH]c2ccc(O)cc12 [5-OH-tryptamine, reference compound]", "unaffected"),
    ("NCCCC(=O)O [GABA, γ-aminobutyric acid, reference compound]", "unaffected"),
]

---

biological target: sigma receptor; test: [3H]DTG displacement radioligand binding assay, guinea pig brain membranes; settings: read-out: IC50 vs. [3H]DTG
hey, just use yes (1) if measured IC50 is less than 600 nM, otherwise no (0)

Exam item: Could you please tell me whether IC50 recorded for CNCCC=C1c2ccccc2CCc2ccccc21 [Nortriptyline, reference compound] is less than 600 nM?
Marked response: no (0)

Exam item: Determine whether this compound shows IC50 lower than 600 nM (ties excluded): C=CCN1CCC2(C)c3cc(O)ccc3CC1C2C (single isomer, unassigned; (-)) [(-)SKF 10,047, N-allyl-normetazocine, reference compound]
Marked response: no (0)

Exam item: Is the reported IC50 for C=CCN1CCC2(C)c3cc(O)ccc3CC1C2C (single isomer, unassigned; (+)) [(+)SKF 10,047, N-allyl-normetazocine, reference compound] strictly below 600 nM?
Marked response: no (0)

Exam item: Determine whether this compound shows IC50 lower than 600 nM (ties excluded): CN(C)CCCN1c2ccccc2Sc2ccc(Cl)cc21 [Chlorpromazine, reference compound]
Marked response: no (0)

Exam item: Identify whether the compound Clc1cccc(Cl)c1N=C1NCCN1 [Clonidine, reference compound] records IC50 below 600 nM.
Marked response: no (0)

Exam item: Given CN(C)CCCN1c2ccccc2CCc2ccccc21 [Imipramine, reference compound] , is recorded IC50 strictly lower than 600 nM?
Marked response: yes (1)

---

target: sigma receptor; assay: [3H]DTG displacement radioligand binding assay, guinea pig brain membranes; details: read-out: IC50, [3H]DTG displacement in guinea-pig brain homogenates; most potent; n=6
Readout label: pIC50
pIC50 here: minus log base 10 of the concentration, concentration in moles per litre.

Exam item: I have this compound here, `Cc1ccccc1NC(=N)NC12CC3CC(CC(C3)C1)C2` , and I need its recorded pIC50.
Marked response: 8.59

---

biological target: sigma receptor; experiment: [3H]DTG displacement radioligand binding assay, guinea pig brain membranes; conditions: Example 25; guinea pig brain membrane homogenates; read-out: IC50 binding values
Provide the recorded IC50 for the entries that follow.
Answer in nM, number only, no unit symbol.

Exam item: Fill in: IC50 of Cc1ccccc1NC(=N)N[C@H]1C[C@@H]2CC[C@@]1(C)C2(C)C (relative stereo) is ___
Marked response: 25

Exam item: Record request: IC50 value, item CC1(C)[C@H]2CC[C@]1(C)[C@@H](NC(=N)Nc1ccccc1I)C2 (relative stereo)
Marked response: 18

Exam item: Any idea what its IC50 is? The compound is `Cc1cc(Br)ccc1NC(=N)NC1CCCCC1`
Marked response: 5.5

Exam item: Which IC50 reading was recorded for the compound O=C1CC2(CCCC2)CC(=O)N1CCCCN1CCN(c2nsc3ccccc23)CC1 [tiospirone, reference compound] ?
Marked response: 233

Exam item: Value lookup for IC50; key = N=C(NC1CC2CCC1C2)NC1CC2CCC1C2 (stereo not drawn) [N,N'-di-(exo-2-norbornyl)guanidine]
Marked response: 22

Exam item: So what's the measured IC50 for this one? `CC(C)c1ccccc1NC(=N)NC12CC3CC(CC(C3)C1)C2`
Marked response: 24

Exam item: What does the data say about its IC50? Entry: `Cc1ccccc1NC(=N)NC12CC3CC(CC(C3)C1)C2`
Marked response: 7.6

Exam item: What does the data say about its IC50? Entry: `Cc1cccc(C)c1NC(=N)Nc1c(C)cccc1C`
Marked response: 90

Exam item: Bench note: what IC50 did N=C(Nc1ccc(I)cc1)NC1C2CC3CC(C2)CC1C3 (stereo not drawn) show?
Marked response: 2.7

---

target: sigma receptor; assay: [3H]DTG displacement radioligand binding assay, guinea pig brain membranes; settings: read-out: IC50 vs [3H]DTG; Table II; ± s.e.m. (n)
Values of IC50 strictly less than 20 nM map to met, and values of at least 20 nM map to not met.

Exam item: IC50 strictly < 20 nM for this molecule? `Cc1ccccc1N(C)C(=N)NC12CC3CC(CC(C3)C1)C2`
Marked response: not met

Exam item: Identify whether the molecule `N=C(Nc1cccc2ccc(=O)oc12)NC12CC3CC(CC(C3)C1)C2` records IC50 below 20 nM.
Marked response: not met

Exam item: Here's an entry: `N=C(Nc1ccc(F)cc1F)NC12CC3CC(CC(C3)C1)C2` . Is its IC50 below 20 nM?
Marked response: met

Exam item: Lab note: confirm whether the reported IC50 for this molecule is below 20 nM, equality not counting. molecule: `N=C(Nc1ccccc1C(F)(F)F)NC12CC3CC(CC(C3)C1)C2`
Marked response: met

Exam item: Bench note: check whether `N=C(Nc1ccccc1I)Nc1cccc2ccccc12` shows IC50 below 20 nM
Marked response: not met

Exam item: Here's an entry: `N=C(Nc1ccc(F)cc1C(F)(F)F)NC12CC3CC(CC(C3)C1)C2` . Is its IC50 below 20 nM?
Marked response: met

Exam item: Strictly below 20 nM in IC50? `N=C(Nc1cccc2c1CCC2)Nc1cccc2c1CCC2`
Marked response: not met

Exam item: Below 20 nM on IC50? Entry `N=C(Nc1ccc2oc(=O)ccc2c1)NC12CC3CC(CC(C3)C1)C2`
Marked response: not met

Exam item: Problem: For the molecule `Cc1cc(Br)ccc1NC(=N)NC1CCCCC1` , is IC50 under 20 nM?
Marked response: met

---

Provide the recorded IC50 for the entries that follow.
target: sigma receptor; experiment: [3H]DTG displacement radioligand binding assay, guinea pig brain membranes; conditions: read-out: IC50 vs. [3H]DTG; Table III; ± SEM; average from 2-4 separate experiments in triplicate
Number only, in µM; omit the unit.

Exam item: Notebook: pull reported IC50 for sigma receptor, entry CCCN1CCC[C@@H](c2cccc(O)c2)C1 [(-)3-PPP, reference compound]
Marked response: 0.28

Exam item: I'm curious: which IC50 was measured for CN(C)CCC=C1c2ccccc2CCc2ccccc21 [Amitriptyline, reference compound] tested on sigma receptor?
Marked response: 0.3
